target: UniProtKB P00750; experiment: Hydrolysis activity of plasminogen activator by LC-MS analysis
The source made the active and inactive calls. The rule behind the calls is not given here. Residues, ends and D or L forms follow the SMILES beside them. *: point of attachment. X1 = CN(C)c1ccc(/N=N/c2ccc(C(=O)*)cc2)cc1; EDANS = O=S(=O)(O)c1cccc2c(NCCN*)cccc12
Reply using exactly one outcome from y (active), n (inactive)

Would you please look over these solved cases?
{"columns": ["molecule", "assigned label"],
 "data": [
  ["CC[C@H](C)[C@H](NC(=O)[C@H](CCCNC(=N)N)NC(=O)[C@H](CCCNC(=N)N)NC(=O)c1ccc(/N=N/c2ccc(N(C)C)cc2)cc1)C(=O)N[C@@H](CC(=O)O)C(=O)NCCNc1cccc2c(S(=O)(=O)O)cccc12 (X1-RRID-{EDANS})", "y"],
  ["CC[C@H](C)[C@H](NC(=O)[C@H](CCCNC(=N)N)NC(=O)[C@H](CCCNC(=N)N)NC(=O)c1ccc(/N=N/c2ccc(N(C)C)cc2)cc1)C(=O)N[C@@H](CC(N)=O)C(=O)N[C@@H](CCCNC(=N)N)C(=O)O (X1-RRINR-OH)", "y"],
  ["CC[C@H](C)[C@H](NC(=O)[C@H](CCCNC(=N)N)NC(=O)[C@H](CCCNC(=N)N)NC(=O)c1ccc(/N=N/c2ccc(N(C)C)cc2)cc1)C(=O)N[C@@H](CC(N)=O)C(=O)O (X1-RRIN-OH)", "y"],
  ["CC[C@H](C)[C@H](NC(=O)[C@H](CCCNC(=N)N)NC(=O)[C@H](CCCNC(=N)N)NC(=O)c1ccc(/N=N/c2ccc(N(C)C)cc2)cc1)C(=O)N[C@@H](CC(N)=O)C(=O)N[C@@H](CCCNC(=N)N)C(=O)N[C@@H](CCC(=O)NCCNc1cccc2c(S(=O)(=O)O)cccc12)C(N)=O (X1-RRINRE(EDANS)-NH2)", "y"],
  ["CC[C@H](C)[C@H](NC(=O)[C@H](CCCNC(=N)N)NC(=O)[C@H](CCCNC(=N)N)NC(=O)c1ccc(/N=N/c2ccc(N(C)C)cc2)cc1)C(=O)NCCNc1cccc2c(S(=O)(=O)O)cccc12", "y"]
]}

Incoming: Kindly provide the recorded test outcome for the following molecule: `CN(C)c1ccc(/N=N/c2ccc(C(=O)N[C@@H](CCCNC(=N)N)C(=O)N[C@@H](CCCNC(=N)N)C(=O)O)cc2)cc1`
Outgoing: n

Incoming: Kindly provide the recorded test outcome for the following molecule: `CC[C@H](C)[C@H](NC(=O)[C@H](CCCNC(=N)N)NC(=O)[C@H](CCCNC(=N)N)NC(=O)c1ccc(/N=N/c2ccc(N(C)C)cc2)cc1)C(=O)O`
Outgoing: y

Incoming: Kindly provide the recorded test outcome for the following molecule: CC[C@H](C)[C@H](NC(=O)[C@H](CCCNC(=N)N)NC(=O)[C@H](CCCNC(=N)N)NC(=O)c1ccc(/N=N/c2ccc(N(C)C)cc2)cc1)C(=O)N[C@@H](CC(N)=O)C(=O)N[C@@H](CCCNC(=N)N)C(=O)N[C@@H](CCC(=O)O)C(=O)NCCNc1cccc2c(S(=O)(=O)O)cccc12 (X1-RRINRE-{EDANS})
Outgoing: y

* * *

target: Tissue-type plasminogen activator (Homo sapiens) (UniProt P00750); assay: Inhibition of recombinant plasminogen activator assessed as conversion of plasminogen to plasmin in fibrinolytic assay
Sequence (P00750 36-562 limits assumed): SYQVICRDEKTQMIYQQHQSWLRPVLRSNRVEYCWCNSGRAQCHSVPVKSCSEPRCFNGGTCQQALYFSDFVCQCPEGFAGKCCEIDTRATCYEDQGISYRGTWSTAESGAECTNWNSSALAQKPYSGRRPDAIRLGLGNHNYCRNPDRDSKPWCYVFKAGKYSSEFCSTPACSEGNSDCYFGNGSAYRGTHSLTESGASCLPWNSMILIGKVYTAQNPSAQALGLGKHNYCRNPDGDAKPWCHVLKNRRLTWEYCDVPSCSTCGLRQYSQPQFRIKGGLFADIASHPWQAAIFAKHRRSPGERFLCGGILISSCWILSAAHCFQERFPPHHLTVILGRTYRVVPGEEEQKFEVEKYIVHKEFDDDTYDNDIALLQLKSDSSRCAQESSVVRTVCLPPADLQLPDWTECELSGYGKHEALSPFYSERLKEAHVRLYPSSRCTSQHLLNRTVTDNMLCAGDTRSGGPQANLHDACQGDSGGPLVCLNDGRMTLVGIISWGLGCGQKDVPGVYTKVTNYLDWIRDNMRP
The source made the active and inactive calls. The calls are words filed in the database; no cut-off is given here. Residues, ends and D or L forms follow the SMILES beside them. *: point of attachment. X1 = CN(C)c1ccc(/N=N/c2ccc(C(=O)*)cc2)cc1; EDANS = O=S(=O)(O)c1cccc2c(NCCN*)cccc12
Reply using exactly one outcome from active, inactive

{"columns": ["compound", "measured on", "assigned label"],
 "data": [
  ["CC[C@H](C)[C@H](NC(=O)[C@H](CCCNC(=N)N)NC(=O)[C@H](CCCNC(=N)N)NC(=O)c1ccc(/N=N/c2ccc(N(C)C)cc2)cc1)C(=O)N[C@@H](CC(N)=O)C(=O)O (X1-RRIN-OH)", "Tissue-type plasminogen activator (Homo sapiens) (UniProt P00750)", "inactive"],
  ["CC[C@H](C)[C@H](NC(=O)[C@H](CCCNC(=N)N)NC(=O)[C@H](CCCNC(=N)N)NC(=O)c1ccc(/N=N/c2ccc(N(C)C)cc2)cc1)C(=O)NCCNc1cccc2c(S(=O)(=O)O)cccc12", "Tissue-type plasminogen activator (Homo sapiens) (UniProt P00750)", "active"],
  ["CC[C@H](C)[C@H](NC(=O)[C@H](CCCNC(=N)N)NC(=O)[C@H](CCCNC(=N)N)NC(=O)c1ccc(/N=N/c2ccc(N(C)C)cc2)cc1)C(=O)N[C@@H](CC(N)=O)C(=O)N[C@@H](CCCNC(=N)N)C(=O)N[C@@H](CCC(=O)NCCNc1cccc2c(S(=O)(=O)O)cccc12)C(N)=O (X1-RRINRE(EDANS)-NH2)", "Tissue-type plasminogen activator (Homo sapiens) (UniProt P00750)", "active"],
  ["CC[C@H](C)[C@H](NC(=O)[C@H](CCCNC(=N)N)NC(=O)[C@H](CCCNC(=N)N)NC(=O)c1ccc(/N=N/c2ccc(N(C)C)cc2)cc1)C(=O)N[C@@H](CC(=O)O)C(=O)NCCNc1cccc2c(S(=O)(=O)O)cccc12 (X1-RRID-{EDANS})", "Tissue-type plasminogen activator (Homo sapiens) (UniProt P00750)", "active"],
  ["CC[C@H](C)[C@H](NC(=O)[C@H](CCCNC(=N)N)NC(=O)[C@H](CCCNC(=N)N)NC(=O)c1ccc(/N=N/c2ccc(N(C)C)cc2)cc1)C(=O)N[C@@H](CC(N)=O)C(=O)N[C@@H](CCCNC(=N)N)C(=O)O (X1-RRINR-OH)", "Tissue-type plasminogen activator (Homo sapiens) (UniProt P00750)", "inactive"],
  ["CC[C@H](C)[C@H](NC(=O)[C@H](CCCNC(=N)N)NC(=O)[C@H](CCCNC(=N)N)NC(=O)c1ccc(/N=N/c2ccc(N(C)C)cc2)cc1)C(=O)O", "Tissue-type plasminogen activator (Homo sapiens) (UniProt P00750)", "inactive"],
  ["CC[C@H](C)[C@H](NC(=O)[C@H](CCCNC(=N)N)NC(=O)[C@H](CCCNC(=N)N)NC(=O)c1ccc(/N=N/c2ccc(N(C)C)cc2)cc1)C(=O)N[C@@H](CC(N)=O)C(=O)N[C@@H](CCCNC(=N)N)C(=O)N[C@@H](CCC(=O)O)C(=O)NCCNc1cccc2c(S(=O)(=O)O)cccc12 (X1-RRINRE-{EDANS})", "Tissue-type plasminogen activator (Homo sapiens) (UniProt P00750)", "active"]
]}

Incoming: Kindly provide the recorded test outcome for the following compound: `CN(C)c1ccc(/N=N/c2ccc(C(=O)N[C@@H](CCCNC(=N)N)C(=O)N[C@@H](CCCNC(=N)N)C(=O)O)cc2)cc1`
Outgoing: inactive
